- System: SNB-75
- experiment: NCI tumour cell line growth inhibition, 48 h
Calls of active or inactive are those of the source. Cut-off read from the data, not from the text of the source: active = GI50 up to about 1.1 µM and inactive = higher. Residues, ends and D or L forms follow the SMILES beside them. *: point of attachment. OBn = c1ccc(CO*)cc1
In this exercise, the only acceptable responses are T (active), F (inactive)

Ask | # outcome recorded in this test, key = O=C(NCCCCCCNC(=O)c1cccc2ccccc12)Nc1cccc2ccccc12
Reply | F

Ask | And the next one, C/C(=N/Nc1nc(C)cc(O)n1)C(=O)O ?
Reply | F

Ask | And the next one, CCCCc1ccc(Nc2nc(Cl)c3[nH]cnc3n2)cc1 ?
Reply | F

Ask | And the next one, CC(=O)O[C@]1(C(C)=O)CC[C@H]2[C@@H]3C[C@H](C)C4=CC(=O)C=C[C@]4(C)[C@@]3(F)[C@@H](O)C[C@@]21C [FLUOROMETHOLONE ACETATE] ?
Reply | F

Ask | And the next one, O=[N+]([O-])c1ccccc1S(=O)(=O)c1ccccc1[N+](=O)[O-] ?
Reply | F

Ask | And the next one, COc1ccc2c(c1)CCc1c-2n(CCN(C)C)c2ccc(OC)cc12 ?
Reply | F

Ask | And the next one, CC(C)(CCl)NC(=O)c1cccc(C(=O)NC(C)(C)CCl)n1 ?
Reply | F

Ask | And the next one, CCOC(=O)C1(C)CCCCC(=O)N1 (centres undefined) ?
Reply | F

Ask | And the next one, N=C(N)N/N=C\c1c(-c2ccccc2)nc2sccn12 ?
Reply | F

Ask | And the next one, COC(=O)CCC12CCC(O1)c1ccccc12 (centres undefined) ?
Reply | F

Ask | And the next one, O=C1/C(=C/c2ccc(Cl)cc2)N=C(c2ccccc2)N1/N=C/c1ccccc1O ?
Reply | F

Ask | And the next one, COc1ccc2c(NCCCCCCNc3c4ccccc4nc4cc(OC)ccc34)c3ccccc3nc2c1 ?
Reply | T

Ask | And the next one, CCC1CN2CCc3c([nH]c4ccccc34)C2C[C@@H]1CC(=O)N(C)C (some centres undefined) ?
Reply | F

Ask | And the next one, Cc1cc(Cl)ccc1NC(=O)C(=O)Cc1occc(=O)c1O ?
Reply | F

Ask | And the next one, CCCCON1C[C@@H](O)C(O)[C@@H](O)C1 (some centres undefined) ?
Reply | F

Ask | And the next one, COc1ccc(CC2Cc3ccccc3CCN2)cc1OC (centres undefined) ?
Reply | F

Ask | And the next one, O=C(CC(=O)C1=CNc2ccccc2S1)C(=O)Nc1ccc(Cl)cc1 ?
Reply | F

Ask | And the next one, COc1ccccc1/N=N/c1c(-c2ccccc2)nn(C(=O)CC(=O)Nc2ccccc2Cl)c1-c1ccccc1 ?
Reply | F

Ask | And the next one, OC1=C(c2ccccc2)C2=NCCN2c2ccccc21 ?
Reply | F

Ask | And the next one, CCCCCCSC[C@H](OC(C)=O)[C@@H](OC(C)=O)[C@@H](OC(C)=O)[C@@H](COC(C)=O)OC(C)=O ?
Reply | F

Ask | And the next one, CCCNC(=O)Nc1c([N+](=O)[O-])cc(C(F)(F)F)cc1[N+](=O)[O-] ?
Reply | F

Ask | And the next one, COC(=O)c1nc(-c2ccc3c(n2)C(=O)C(=N)C(OC)=C3O)c(N)c(-c2ccc(OC)c(OC)c2O)c1C ?
Reply | T

Ask | And the next one, COC1OC(COCc2ccc(Cl)cc2)C(OCc2ccc(Cl)cc2)C1N=[N+]=[N-] (centres undefined) ?
Reply | F

Ask | And the next one, NC(=O)c1cc2ccc(O)cc2o/c1=N/NC(=O)c1ccccc1 ?
Reply | F

Ask | And the next one, CC[C@@]1(N(C)C)C(=O)OCc2c1cc1n(c2=O)Cc2cc3ccccc3nc2-1 ?
Reply | F

Ask | And the next one, NC(CCC(=O)OCc1ccccc1)C(=O)NC(CCC(=O)OCc1ccccc1)C(=O)O (centres undefined) (H-Glu(OBn)-Glu(OBn)-OH; configuration not given here) ?
Reply | F

Ask | And the next one, COc1ccc(C2C3CCCC(C3=O)C(c3ccc(OC)cc3)N2N=O)cc1 (centres undefined) ?
Reply | F

Ask | And the next one, COc1ccc(NC(=O)C(=O)C(CC2C(=O)NC(=S)NC2=O)C(=O)c2ccc3ccccc3c2)c([N+](=O)[O-])c1 (centres undefined) ?
Reply | F

Ask | And the next one, C=C(CC[C@@H](C)[C@H]1CC[C@@]2(C)C3=C(CC[C@]12C)[C@@]1(C)CC[C@H](O)[C@@H](C)C1CC3)C(C)C (some centres undefined) ?
Reply | F

Ask | And the next one, CC(C)(C)OC(=O)N1C(C2=COc3ccccc3O2)=COc2cccnc21 ?
Reply | F

Ask | And the next one, N#CC1=C(N)n2c(s/c(=C\c3ccc(Cl)cc3)c2=O)=C(c2nc3ccccc3[nH]2)C1c1ccc(Cl)cc1 (centres undefined) ?
Reply | F

Ask | And the next one, NC1=NN(c2ccccc2)C(=O)C1C(=O)C(=O)Nc1ccc(Cl)cc1 (centres undefined) ?
Reply | F

Ask | And the next one, CCOC1=C/C(=N\Nc2ccc([N+](=O)[O-])cc2)CCC1 ?
Reply | F

Ask | And the next one, CCC1(O)C[C@H]2CN(CCCc3c([nH]c4ccccc34)[C@@](C(=O)OC)(c3cc4c(cc3OC)N(C)C3[C@](O)(C(=O)OC)[C@H](OC(C)=O)[C@]5(CC)C=CCN6CC[C@]43[C@H]65)C2)C1 (some centres undefined) ?
Reply | F

Ask | And the next one, CC(=O)C1C(=O)C(=O)N(c2ccc(Cl)c(Cl)c2)C1=O (centres undefined) ?
Reply | F

Ask | And the next one, CC1CCCN1CCCOC(=O)c1ccc(OC2C=CCCC2)cc1 (centres undefined) ?
Reply | F

Ask | And the next one, CC1=C(C(=O)OC(C)C)C(c2ccccc2[N+](=O)[O-])C(C(=O)OC(CO[N+](=O)[O-])CO[N+](=O)[O-])=C(C)N1 (centres undefined) ?
Reply | F

Ask | And the next one, S=C1Cc2cc3ccccc3nc2-c2ccccc2N1 ?
Reply | F

Ask | And the next one, CN(C)CCNC(=O)c1cccc2cc3c(Cl)cccc3nc12 ?
Reply | F

* * *

- Test system: HCT-116
- experiment: NCI tumour cell line growth inhibition, 48 h
Activity calls are given as the source filed them. Cut-off read from the data, not from the text of the source: active = GI50 up to about 1.1 µM and inactive = higher. Residues, ends and D or L forms follow the SMILES beside them. *: point of attachment. OBn = c1ccc(CO*)cc1
In this exercise, the only acceptable responses are active, inactive

Ask | # outcome recorded in this test, key = NC(CCC(=O)OCc1ccccc1)C(=O)NC(CCC(=O)OCc1ccccc1)C(=O)O (configuration not stated) (H-Glu(OBn)-Glu(OBn)-OH; configuration not given here)
Reply | inactive

Ask | And the next one, CCCCOC(=O)C(=O)C(CC(C(=O)Cc1ccccc1)c1ccccc1)C(=O)C=C(C)C (configuration not stated) ?
Reply | inactive

Ask | And the next one, NC(Cc1ccc(O)c(O)c1)P(=O)(O)O (configuration not stated) ?
Reply | inactive

Ask | And the next one, NC(Cc1cccc([N+](=O)[O-])c1)C(=O)O (configuration not stated) ?
Reply | inactive

Ask | And the next one, CO[C@@]12[C@H](COC(N)=O)C3=C(C(=O)C(C)=C(N)C3=O)N1C[C@@H]1N[C@@H]12 [MITOMYCIN] ?
Reply | active

Ask | And the next one, Clc1sc(Cl)c2c1[C@H](Cl)C[C@@H]2Cl ?
Reply | inactive

Ask | And the next one, COC(=O)c1cc(C#N)[nH]c1-c1cc(Br)cs1 ?
Reply | inactive

* * *

Answer each item with its documented GI50.
- System: 786-0
- experiment: NCI tumour cell line growth inhibition, 48 h
Active and inactive are the calls of the source. No stated cut-off is given here; in the data, active = GI50 up to about 1.1 µM and inactive = higher.

Ask | So what does the record say about GI50 for CCCCc1ccc(Nc2nc(Cl)c3[nH]cnc3n2)cc1 ?
Reply | 15.7 µM (inactive)

Ask | And the next one, C/C(=C\CNc1ncnc2[nH]c(Cl)nc12)CO ?
Reply | > 100 µM (inactive)

Ask | And the next one, CC(=O)Oc1ccccc1/C=C/C(=O)/C=C/c1ccccc1OC(C)=O ?
Reply | 1.79 µM (inactive)

Ask | And the next one, Cc1ccc(N2C(=O)C(=CN)C(=O)N(c3ccc(C)cc3)C2=O)cc1 ?
Reply | > 100 µM (inactive)

Ask | And the next one, CC1=CC(=O)c2ccccc2C1=O ?
Reply | 14.6 µM (inactive)

Ask | And the next one, CC1=CCC2(C#N)CCC1C2O (centres undefined) ?
Reply | 64.1 µM (inactive)

Ask | And the next one, COc1ccc(Nc2[nH]c(C(C)=O)c(N)c2C(=S)Nc2ccccc2)cc1 ?
Reply | 42.5 µM (inactive)

Ask | And the next one, OCC12C=CC(C1)c1ccccc12 (centres undefined) ?
Reply | > 100 µM (inactive)

Ask | And the next one, CCC1c2[nH]c3ccccc3c2C[C@H]2C(=O)NC(CCCCNC(=O)OC(C)(C)C)C(=O)N12 (some centres undefined) ?
Reply | 22.2 µM (inactive)

Ask | And the next one, O=C(c1ccc(Cl)cc1)N(C(=S)OCc1ccccn1)c1ccccc1 ?
Reply | 83.2 µM (inactive)

Ask | And the next one, CC(C)(C)c1ccc(OCCOc2ccc(C(C)(C)C)cc2NC=O)c(NC=O)c1 ?
Reply | 8.17 µM (inactive)

Ask | And the next one, O=C(NCCCCCCNC(=O)c1cccc2ccccc12)Nc1cccc2ccccc12 ?
Reply | > 100 µM (inactive)

Ask | And the next one, O=C1C(S(=O)(=O)c2ccccc2)=C(CS(=O)(=O)c2ccccc2)[C@@H](OCc2ccccc2)[C@@H]1OCc1ccccc1 ?
Reply | 26.4 µM (inactive)

Ask | And the next one, CC1(C)CC(=O)C2=C(C1)c1c(ccc3ccccc13)NC2c1cn(Cc2ccc(Cl)cc2)c2ccccc12 (centres undefined) ?
Reply | > 100 µM (inactive)

Ask | And the next one, Cc1ccc(C(=O)N(C(C)C)C(C)C)cc1/N=N/N(C)C ?
Reply | > 100 µM (inactive)

Ask | And the next one, Cc1ccc(S(=O)(=O)C2=c3ncccc3=C3C(=O)c4ccccc4C(=O)C32)cc1 (centres undefined) ?
Reply | 28.4 µM (inactive)

Ask | And the next one, COc1ccc(CCn2cnc3ccccc32)cc1 ?
Reply | > 100 µM (inactive)

Ask | And the next one, CC(C)(C)OC(=O)N1C(C2=COc3ccccc3O2)=COc2cccnc21 ?
Reply | 1.83 µM (inactive)

Ask | And the next one, NC(Cc1ccc(O)c(O)c1)P(=O)(O)O (centres undefined) ?
Reply | > 100 µM (inactive)
